target: Taq DNA polymerase I532T/R536C/K540C/H784C (UniProt P19821 P19821:1-832, I532T,R536C,K540C,H784C); experiment: EMSA; 1x TAE with 2 mM EDTA, pH 8.3, 10% glycerol; settings: tags: Fermentas; label: 5'-33P on 24 nt strand; 24 nt primer annealed to 44 nt template, 20 nt 5' template overhang
Sequence (P19821 whole entry I532T/R536C/K540C/H784C, one chain of several): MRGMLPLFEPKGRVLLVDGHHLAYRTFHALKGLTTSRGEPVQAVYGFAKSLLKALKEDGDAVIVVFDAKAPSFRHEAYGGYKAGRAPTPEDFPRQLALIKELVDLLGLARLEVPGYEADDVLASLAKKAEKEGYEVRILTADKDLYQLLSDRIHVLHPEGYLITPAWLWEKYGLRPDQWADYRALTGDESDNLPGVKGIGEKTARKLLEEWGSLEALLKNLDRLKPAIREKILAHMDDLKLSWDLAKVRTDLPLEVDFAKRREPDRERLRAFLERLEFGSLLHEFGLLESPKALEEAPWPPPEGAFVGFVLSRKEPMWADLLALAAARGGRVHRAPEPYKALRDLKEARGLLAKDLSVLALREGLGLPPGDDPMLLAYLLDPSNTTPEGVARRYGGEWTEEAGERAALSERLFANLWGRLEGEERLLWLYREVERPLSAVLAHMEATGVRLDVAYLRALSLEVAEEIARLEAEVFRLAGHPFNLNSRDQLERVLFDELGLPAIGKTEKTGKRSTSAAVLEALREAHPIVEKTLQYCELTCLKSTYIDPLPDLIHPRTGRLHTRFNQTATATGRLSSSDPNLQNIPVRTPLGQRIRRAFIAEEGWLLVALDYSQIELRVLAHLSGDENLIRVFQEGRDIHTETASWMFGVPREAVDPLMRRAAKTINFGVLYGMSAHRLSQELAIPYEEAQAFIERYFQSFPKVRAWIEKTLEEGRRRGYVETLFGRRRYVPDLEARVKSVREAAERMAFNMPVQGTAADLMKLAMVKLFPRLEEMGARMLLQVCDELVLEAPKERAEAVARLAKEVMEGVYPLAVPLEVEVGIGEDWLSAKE
Readout Type: Kd (nM)

- Binder: "24/44 nt template-primer duplex (dsDNA) DNA 1: TTTTAGCCGCTAGAGTCGACCTGC DNA 2: GGAGACAAGCTTGTATGCCTGCAGGTCGACTCTAGCGGCTAAAA"
  Readout Type: "Kd"
  Endpoint Unit: "nM"
  Reading: 990

Entry source: patent US20110059490
